- Experiment Notes: Aggregation after dialysis of purified polypeptide solution
- Assay type: physicochemical
- Design: key: G: The formation of an aggregate was not observed.; A: The formation of particles having a particle size of about 100 nm was observed.; B: The formation of an aggregation of particles having a particle size of equal to or greater than 1 mm was visually observed

- Molecule: "RCP-4: recombinant polypeptide for culture, SEQ ID NO: 18; vitronectin positions 1-55, 312-341, 342-373 (protein, Vitronectin-derived Recombinant Protein (RCP-4)) MDQESCKGRCTEGFNVDKKCQCDELCSYYQSCCTDYTAECKPQVTRGDVFTMPEDEQPQFISRDWHGVPGQVDAAMAGRIYISGMAPRPSLAKKQRFRHRNRKGYRSQRGHSRGRNQN"
  Aggregation: "G"
- Molecule: "RCP-11: recombinant polypeptide for culture, SEQ ID NO: 25; vitronectin positions 1-55, 269-277, 295-341, 342-373, C274S (protein, Vitronectin-derived Recombinant Protein (RCP-11), vitronectin positions 1-55, 269-277, 295-341, 342-373, C274S) MDQESCKGRCTEGFNVDKKCQCDELCSYYQSCCTDYTAECKPQVTRGDVFTMPEDESQEESEGSEDIFELLFWGRTSAGTRQPQFISRDWHGVPGQVDAAMAGRIYISGMAPRPSLAKKQRFRHRNRKGYRSQRGHSRGRNQN"
  Aggregation: "A"
